# assay_remarks: A: acetonitrile + 0.1% formic acid + 10 mM ammonium formate; B: 5% water + 95% acetonitrile + 0.1% formic acid + 10 mM ammonium formate; gradient (min/%B) 0/10 2/10 22/100 27/100 27.1/10
# condition_context: stereoisomer not certain
reported_endpoint: LC retention time (min)
Lab book: enter the figure in min, no units written.

Worked examples, 6 molecules total:
Please report the measured LC retention time for O=C1CC[C@@H](C(=O)O)N1
6.81

Quick one: give measured LC retention time for Cc1ccnc2c1NC(=O)c1cccnc1N2C1CC1
0.596

Look up LC retention time of Cc1cccc(Nc2ccccc2C(=O)O)c1C and report it.
0.437

Give me measured LC retention time, please, for this molecule: NC(CCS)C(=O)O (racemic)
5.69

Answer with reported LC retention time of COc1cc(C=CC(=O)O)cc(OC)c1OC
0.47

Specify LC retention time for CC(C)C[C@H](NC(=O)CN)C(=O)O and stop.
5.81

***
Recall and state the measured LC retention time for NCCCC(N)C(=O)O (stereo not given) .
7.71

In one line, give reported LC retention time of the entry C[C@@H](O)[C@H](N)C(=O)O .
6.22

For the molecule NC(=O)C1=CN(C2OC(COP(=O)(O)OP(=O)(O)OCC3OC(n4cnc5c(N)ncnc54)C(O)C3O)C(O)C2O)C=CC1 (stereo not given) , give its measured LC retention time value.
7.5
